B1: RIT1 (parent)
chain: FHALVREIRRKEKEAVLAMEKKSK

# Variants of: B1
# experiment-description: protein stability index of a GFP-peptide fusion (GPS, HEK-293T) (PSI 1-6); higher = more stable;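 further: lentivirally expressed fusions sorted by FACS into six bins by GFP to DsRed ratio, PSI derived from sequencing read proportions per bin multiplied by bin number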
# condition-context: c terminus: a fixed tail appended
Outcome: TRUE for protein stability index of at least 2; FALSE for anything lower.

>>> class_assignment("H2Y")
"TRUE"
>>> class_assignment("K24G")
"TRUE"
>>> class_assignment("K22R")
"TRUE"
>>> class_assignment("L17P")
"FALSE"
>>> class_assignment("V5Q")
"TRUE"
>>> class_assignment("A15H")
"TRUE"
>>> class_assignment("R9E")
"TRUE"
>>> class_assignment("L17F")
"TRUE"
>>> class_assignment("L4A")
"TRUE"
>>> class_assignment("K13R")
"FALSE"
>>> class_assignment("E7L")
"TRUE"
>>> class_assignment("K21P")
"TRUE"
>>> class_assignment("R9S")
"FALSE"
>>> class_assignment("A18W")
"FALSE"
>>> class_assignment("L4W")
"FALSE"
>>> class_assignment("K11A")
"FALSE"
>>> class_assignment("E14G")
"FALSE"
>>> class_assignment("L17G")
"FALSE"
>>> class_assignment("R9V")
"TRUE"
>>> class_assignment("K13I")
"TRUE"
>>> class_assignment("R10D")
"FALSE"

Data provenance is the supplement of paper PMC10567573.
